All figures here come from patent US11014913B2.

- experimental target: PARP7 (Homo sapiens (Human), UniProt Q7Z3E1)
- Sequence (Q7Z3E1 whole entry): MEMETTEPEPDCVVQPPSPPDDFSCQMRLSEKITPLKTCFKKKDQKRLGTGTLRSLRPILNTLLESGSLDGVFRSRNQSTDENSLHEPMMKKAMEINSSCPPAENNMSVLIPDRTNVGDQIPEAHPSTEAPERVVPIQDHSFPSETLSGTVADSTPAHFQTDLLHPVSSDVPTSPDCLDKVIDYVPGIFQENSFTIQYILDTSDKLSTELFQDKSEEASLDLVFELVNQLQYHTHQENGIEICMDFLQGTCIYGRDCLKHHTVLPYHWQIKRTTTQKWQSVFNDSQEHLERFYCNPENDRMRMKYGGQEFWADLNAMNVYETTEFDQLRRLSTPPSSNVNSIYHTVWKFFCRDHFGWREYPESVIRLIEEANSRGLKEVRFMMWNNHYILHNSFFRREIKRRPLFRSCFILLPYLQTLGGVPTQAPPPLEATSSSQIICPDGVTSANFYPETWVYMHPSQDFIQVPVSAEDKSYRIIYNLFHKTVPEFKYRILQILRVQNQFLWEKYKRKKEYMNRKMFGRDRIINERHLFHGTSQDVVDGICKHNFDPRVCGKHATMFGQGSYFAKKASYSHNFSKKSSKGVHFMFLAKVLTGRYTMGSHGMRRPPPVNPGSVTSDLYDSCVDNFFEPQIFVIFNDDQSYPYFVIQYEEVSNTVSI
- assay method text: Enzymatic assay for inhibition of PARP7 (TR-FRET displacement of Probe A from the TIPARP active site)
- Format: binding
reported property: IC50

IN: Please report the recorded IC50 for N#Cc1ccc(N2CCN(C(=O)CNCC[C@@H]3c4ccccc4CN3c3cn[nH]c(=O)c3C(F)(F)F)CC2)nc1 [Example 144B] .
OUT: 100 to 1000 nM
